target: Fatty acid synthase (Homo sapiens); test: inhibition of human FAS-TE enzyme activity – biochemical, kinetic fluorescence intensity, dose response (AID 624326); type: functional;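 also: rate of fluorescence rise from hydrolysis of a fluorogenic O-methyl fluorescein ester substrate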
Sequence (P49327 whole entry): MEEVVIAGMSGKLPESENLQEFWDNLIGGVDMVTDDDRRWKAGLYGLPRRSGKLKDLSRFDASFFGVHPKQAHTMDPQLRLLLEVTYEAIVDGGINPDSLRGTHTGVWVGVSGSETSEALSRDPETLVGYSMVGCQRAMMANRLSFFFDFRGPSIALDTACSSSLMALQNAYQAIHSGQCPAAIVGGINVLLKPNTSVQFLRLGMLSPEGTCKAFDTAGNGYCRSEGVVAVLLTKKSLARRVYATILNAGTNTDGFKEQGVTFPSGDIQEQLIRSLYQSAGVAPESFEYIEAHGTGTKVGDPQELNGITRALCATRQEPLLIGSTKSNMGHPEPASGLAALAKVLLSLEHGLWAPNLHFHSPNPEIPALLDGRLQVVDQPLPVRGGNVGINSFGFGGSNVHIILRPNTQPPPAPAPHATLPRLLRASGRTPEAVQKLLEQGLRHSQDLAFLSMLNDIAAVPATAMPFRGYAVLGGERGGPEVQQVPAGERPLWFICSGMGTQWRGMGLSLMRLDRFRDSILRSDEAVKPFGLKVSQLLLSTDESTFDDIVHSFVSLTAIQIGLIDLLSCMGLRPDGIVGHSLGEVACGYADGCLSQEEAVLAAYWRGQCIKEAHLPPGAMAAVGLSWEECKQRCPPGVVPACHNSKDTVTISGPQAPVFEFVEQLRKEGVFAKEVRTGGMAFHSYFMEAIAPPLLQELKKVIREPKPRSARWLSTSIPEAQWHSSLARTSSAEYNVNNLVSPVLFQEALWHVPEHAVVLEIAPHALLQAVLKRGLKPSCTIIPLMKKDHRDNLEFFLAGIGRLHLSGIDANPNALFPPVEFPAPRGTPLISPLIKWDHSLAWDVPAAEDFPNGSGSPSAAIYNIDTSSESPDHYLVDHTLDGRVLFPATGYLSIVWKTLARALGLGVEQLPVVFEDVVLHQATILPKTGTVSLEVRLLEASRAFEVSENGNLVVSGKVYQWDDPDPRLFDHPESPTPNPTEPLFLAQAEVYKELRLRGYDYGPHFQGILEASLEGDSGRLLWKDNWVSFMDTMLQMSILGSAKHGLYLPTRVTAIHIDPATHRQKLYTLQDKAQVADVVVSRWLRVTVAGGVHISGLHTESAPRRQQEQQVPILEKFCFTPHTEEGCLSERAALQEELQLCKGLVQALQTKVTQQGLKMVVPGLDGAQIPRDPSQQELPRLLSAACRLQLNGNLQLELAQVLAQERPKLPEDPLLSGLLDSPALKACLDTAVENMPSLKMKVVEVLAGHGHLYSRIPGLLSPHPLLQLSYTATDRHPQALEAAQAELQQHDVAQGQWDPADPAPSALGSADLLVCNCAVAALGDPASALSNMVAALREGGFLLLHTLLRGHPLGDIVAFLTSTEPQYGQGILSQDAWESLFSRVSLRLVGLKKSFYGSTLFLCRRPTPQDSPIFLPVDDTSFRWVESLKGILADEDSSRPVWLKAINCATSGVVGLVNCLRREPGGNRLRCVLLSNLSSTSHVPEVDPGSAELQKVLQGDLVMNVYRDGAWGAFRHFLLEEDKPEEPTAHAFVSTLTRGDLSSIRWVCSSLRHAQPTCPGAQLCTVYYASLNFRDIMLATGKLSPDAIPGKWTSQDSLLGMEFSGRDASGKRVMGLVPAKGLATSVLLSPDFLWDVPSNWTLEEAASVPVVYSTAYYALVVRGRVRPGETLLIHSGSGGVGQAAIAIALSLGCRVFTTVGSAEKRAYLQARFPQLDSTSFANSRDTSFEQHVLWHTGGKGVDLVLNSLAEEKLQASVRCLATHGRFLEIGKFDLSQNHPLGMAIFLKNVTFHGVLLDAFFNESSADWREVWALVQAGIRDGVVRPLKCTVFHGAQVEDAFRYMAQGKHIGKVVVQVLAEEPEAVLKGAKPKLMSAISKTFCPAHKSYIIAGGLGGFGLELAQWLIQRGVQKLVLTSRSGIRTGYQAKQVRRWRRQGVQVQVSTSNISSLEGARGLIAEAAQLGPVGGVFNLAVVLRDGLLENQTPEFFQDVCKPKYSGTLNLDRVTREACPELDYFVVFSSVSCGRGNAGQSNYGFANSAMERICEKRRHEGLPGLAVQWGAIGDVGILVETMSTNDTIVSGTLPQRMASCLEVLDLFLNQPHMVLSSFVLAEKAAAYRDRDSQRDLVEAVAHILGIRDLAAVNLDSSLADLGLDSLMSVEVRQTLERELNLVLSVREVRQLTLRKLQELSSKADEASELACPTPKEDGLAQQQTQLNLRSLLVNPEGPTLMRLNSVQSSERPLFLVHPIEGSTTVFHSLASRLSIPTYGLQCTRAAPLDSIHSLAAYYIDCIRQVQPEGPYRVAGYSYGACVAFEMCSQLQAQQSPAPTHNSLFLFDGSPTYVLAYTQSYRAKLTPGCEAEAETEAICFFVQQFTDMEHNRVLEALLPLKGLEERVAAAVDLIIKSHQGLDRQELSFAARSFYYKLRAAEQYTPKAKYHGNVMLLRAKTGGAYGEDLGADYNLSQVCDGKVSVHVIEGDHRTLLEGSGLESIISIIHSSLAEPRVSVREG
Activity calls are given as the source filed them. Rule as the data show it: active = IC50 of 20 µM or less and inactive = more.
A collection of compounds and their measured IC50

A selection of reference data follows.
COc1ccc2c(c1)C(=O)N1[C@H]3c4cc(Cl)ccc4OC[C@@H]3[C@H](c3ccccc3)[C@]1(C)C(=O)N2 ... 18.8 µM (active)
CCCC(=O)OCCNc1cc(Sc2nccn2C)c2nonc2c1[N+](=O)[O-] ... 2.57 µM (active)
O=C(OCc1cccc(C(F)(F)F)c1)c1cc([N+](=O)[O-])ccc1N1CCOCC1 ... 7.24 µM (active)
C=CCC[C@@H](Cc1ccc(F)cc1)C(=O)OC[C@H](Cc1c[nH]c2ccccc12)NC(=O)[C@H](CC=C)CC(=O)NCCO ... 6.03 µM (active)
Cc1ccc(NC(=O)c2cc([N+](=O)[O-])ccc2N2CCOCC2)cc1C ... 2.81 µM (active)
CC1CCc2nc(NC(=O)CN3CCN(c4ccc(F)cc4)CC3)sc2C1 (stereo not drawn) ... 1.81 µM (active)
O=C(N/C(=C/C=C/c1ccccc1)C(=O)N1CCCCC1)c1ccc([N+](=O)[O-])cc1 ... 0.258 µM (active)

Okay, next one:
Input line: # input compound: C[C@@H]1CN([C@H](C)CO)C(=O)c2cc(NC(=O)Nc3ccc(F)cc3)ccc2O[C@@H](C)CCCCO[C@H]1CN(C)S(=O)(=O)c1cccs1 ; wanted: its IC50
Output line: 3.69 µM (active)
